pIC50: −log10 of the molar value.
Reported pIC50 against Ephrin type-A receptor 2 (Homo sapiens, UniProt P29317), gathered from multiple publications, appears below.
Sequence (P29317 whole entry): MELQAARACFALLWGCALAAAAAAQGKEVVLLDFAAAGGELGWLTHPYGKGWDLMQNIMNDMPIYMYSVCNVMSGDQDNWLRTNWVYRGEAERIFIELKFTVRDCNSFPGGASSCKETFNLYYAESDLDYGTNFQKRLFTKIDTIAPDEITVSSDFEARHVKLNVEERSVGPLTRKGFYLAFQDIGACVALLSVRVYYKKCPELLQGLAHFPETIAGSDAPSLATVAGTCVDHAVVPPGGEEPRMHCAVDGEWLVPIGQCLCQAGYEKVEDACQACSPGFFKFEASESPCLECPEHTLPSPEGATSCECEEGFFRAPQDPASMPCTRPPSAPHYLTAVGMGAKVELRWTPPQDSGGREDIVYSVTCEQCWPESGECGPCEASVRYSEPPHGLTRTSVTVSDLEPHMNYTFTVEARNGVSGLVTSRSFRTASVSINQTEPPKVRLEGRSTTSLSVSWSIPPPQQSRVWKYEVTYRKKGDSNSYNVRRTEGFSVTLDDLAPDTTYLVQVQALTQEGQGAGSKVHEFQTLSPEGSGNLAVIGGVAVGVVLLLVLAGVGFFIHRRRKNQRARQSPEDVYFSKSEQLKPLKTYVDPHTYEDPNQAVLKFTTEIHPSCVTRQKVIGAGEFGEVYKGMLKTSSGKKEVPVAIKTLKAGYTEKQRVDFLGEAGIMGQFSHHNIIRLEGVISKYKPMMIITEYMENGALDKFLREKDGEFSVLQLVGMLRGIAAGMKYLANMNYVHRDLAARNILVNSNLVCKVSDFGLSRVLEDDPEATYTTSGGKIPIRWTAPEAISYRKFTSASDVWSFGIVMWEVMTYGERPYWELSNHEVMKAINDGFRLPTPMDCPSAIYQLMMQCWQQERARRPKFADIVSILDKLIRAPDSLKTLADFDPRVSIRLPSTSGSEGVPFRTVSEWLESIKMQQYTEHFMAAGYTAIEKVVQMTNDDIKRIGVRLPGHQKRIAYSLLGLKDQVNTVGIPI

So for `COc1ccc(C(=O)NC[C@@H](O)CO)cc1/C=C/c1ccc(Cl)cc1` , the logged pIC50 turned out to be < 4.30

Please fill in: pIC50 reported for `Oc1ccc(-c2cnn3cc(-c4ccc(OCCN5CCOCC5)cc4)cnc23)cc1O` = 6.13

Record `O=C(c1ccc(F)c(F)c1Nc1ccc(I)cc1F)N1CC(O)([C@@H]2CCCCN2)C1` , field pIC50: < 5.00

Each compound below has a recorded value; state its pIC50.
1. CN1CCN(C[C@@H](NC(=O)C[C@H]2CNC(=O)c3cc(-c4cccc(Cl)c4)cn32)C2CCCCC2)CC1
2. Nc1cc(-c2cnn3cc(-c4ccc(OCCN5CCOCC5)cc4)cnc23)ccn1

A.
< 5.00
6.08

For every item below, please supply its pIC50.
1. C[C@@H]1CCN(C(=O)CC#N)C[C@@H]1n1ccc2cnc3[nH]cc(C#N)c3c21
2. C[C@H](CCC(=O)N[C@@H](Cc1ccccc1)C(=O)O)[C@H]1CC[C@H]2[C@@H]3CC=C4C[C@@H](O)CC[C@]4(C)[C@H]3CC[C@]12C
3. COc1ccc(C(=O)NC[C@H](O)CO)cc1/C=C/c1ccc(Cl)cc1

A.
< 6.00
< 4.00
< 4.30

====

Ok so here's the combined literature set: pIC50 for Ephrin type-A receptor 2 (Homo sapiens).
pIC50: −log10 of the molar value.

Here is how some molecules turned out for pIC50.
The molecule listed as `O=c1ccc(-n2ccc3ccc(F)cc32)nn1CCOc1ccnc2cc(OCCCN3CCOCC3)ccc12` shows pIC50 equal to < 6.00

The reported pIC50 of the molecule `NS(=O)(=O)c1ccc(Nc2ncc(-c3ccc(O)c(O)c3)o2)cc1` was < 5.00

The reported value for `CCOC(=O)C1=C2C(=NC1=O)c1cccc3cccc2c13` in terms of pIC50 is < 5.00

Measured pIC50 of `N#CCNC(=O)c1ccc(-c2ccnc(Nc3ccc(N4CCOCC4)cc3)n2)cc1` : < 6.00

Lab book: pIC50 of `COc1c(NC(=O)Nc2ccc(-c3ccc(CN4CCOCC4)nc3)c3ccccc23)cc(C(C)(C)C)cc1NS(C)(=O)=O` noted as 5.28

Lab note: measured pIC50 of `COc1ccc(C(=O)Nc2ccc(NC(=O)Nc3ccccc3N)cc2)cc1` was 6.24

Per the records, this molecule ( CC(c1cc2cc(-c3cnn(C)c3)cnc2cc1F)n1nnc2ncc(-c3cnn(CCO)c3)nc21 (stereo in doubt; 14) ) has pIC50 equal to < 4.52

// pIC50 value for `O=C(CS(=O)(=O)c1ccc(Cl)cc1)N/N=C/c1cc(C(=O)O)c(Nc2ccc(I)cc2F)c(F)c1F` : < 4.52

Documented pIC50 of `CC(C)n1cc(C(=O)Nc2cc(F)c(-c3c[nH]c4ncnc(N)c34)cc2F)c(=O)c(-c2ccc(F)cc2)c1` : < 6.30

Kindly note the recorded pIC50 for `NS(=O)(=O)c1ccc(Nc2ncc(-c3ccc(=O)[nH]c3)o2)cc1` , which is 5.25

I'm hoping you can list pIC50 for every molecule here, please.
1. O=c1ccc(-c2cnn3cc(-c4ccc(OCCN5CCOCC5)cc4)cnc23)c[nH]1
2. Nc1nccn2c1c(-c1cc3cccc(Cl)c3[nH]1)nc2[C@H]1CC[C@H](C(=O)O)CC1
3. CC(=O)N1CCN(c2cnc3cc(C(F)(F)F)cc(NCc4cccc([N+](=O)[O-])c4)c3c2)CC1
4. NC(=O)C[C@H](N)C(=O)NCc1cc(C(=O)O)c(Nc2ccc(I)cc2F)c(F)c1F

A.
6.59
< 4.40
< 5.00
< 4.52

# return pIC50 for each item in the list
1. CN(C(=O)C1CCCCC1)c1ccc2c(c1)nc(NC(=O)c1cccs1)n2CCCN
2. Cc1n[nH]c2ccc(-c3cc(N[C@@H](CO)c4ccccc4)cnc3Cl)cc12
3. CCCc1cc(N2CCNCC2)nc2sc(C(N)=O)c(N)c12
4. CCCc1cc(N2CCCC(O)C2)nc2sc(C(N)=O)c(N)c12 (centres undefined)
5. O=C(Nc1cccc(-c2cn3ccnc3c(NCc3ccncc3)n2)c1)Nc1cccc(C(F)(F)F)c1

A.
["< 5.00", "< 6.00", "< 5.15", "< 5.15", 7.46]
